Test system: PPARg:RXRa DBDmut IVT, anti-RXR (DBD mutation: RXRa K156A/R161A, NR concentration 270 nM, RXRa partner concentration 90 nM)
Test: PBM binding z-score (relative to random genomic background probes); higher = stronger binding; sequences stand for … in GC…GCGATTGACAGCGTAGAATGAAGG
Tag: 1.0 if measured PBM binding z-score is not below 0.9, 0.0 if it is.

record_sequence | classification
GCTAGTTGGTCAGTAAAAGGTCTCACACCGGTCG | 0.0
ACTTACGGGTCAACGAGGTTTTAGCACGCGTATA | 1.0
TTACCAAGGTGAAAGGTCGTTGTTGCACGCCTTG | 1.0
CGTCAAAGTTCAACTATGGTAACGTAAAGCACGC | 0.0
GGGACTGGGGCATCAGCAGGTTACCATAACTTAA | 1.0
CCTACTGGGCCAAGGTCATTGAACAGTCAAAGCA | 1.0
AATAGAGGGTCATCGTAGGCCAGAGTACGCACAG | 1.0
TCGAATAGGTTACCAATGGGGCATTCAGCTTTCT | 1.0
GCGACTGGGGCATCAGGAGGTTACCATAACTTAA | 1.0
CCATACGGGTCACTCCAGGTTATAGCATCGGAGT | 1.0
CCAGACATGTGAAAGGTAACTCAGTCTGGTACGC | 0.0
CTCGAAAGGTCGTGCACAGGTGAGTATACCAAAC | 0.0

###

System: RXRa DBDmut IVT, anti-RXR (DBD mutation: RXRa K156A/R161A, NR concentration 90 nM)
Assay: PBM binding z-score (relative to random genomic background probes); higher = stronger binding; sequences stand for … in GC…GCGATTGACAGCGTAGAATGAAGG
The reader will find reported PBM binding z-score values listed item by item below.

record_sequence | PBM binding z-score
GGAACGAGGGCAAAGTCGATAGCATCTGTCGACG | 2.53
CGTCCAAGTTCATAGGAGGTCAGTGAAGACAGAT | 4.98
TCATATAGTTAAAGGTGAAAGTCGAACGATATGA | 0.551
ATCTCTAGGTAACCAAGTCCAGTGAATGCCGAAC | 0.275
TGAATGAGATTAAAGATCAGGGAACGTGGCGTCG | -1.09
TCATATTGGTAAAAGGTGAAAGTCGGTGTGGTAA | 1.66
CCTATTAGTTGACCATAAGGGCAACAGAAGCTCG | 0.685
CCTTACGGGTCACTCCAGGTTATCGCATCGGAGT | 1.07
GATACAGGGTCAGCTAGAGGCGAGAGTATGGAAA | 1.57
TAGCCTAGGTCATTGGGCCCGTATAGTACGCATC | 1.8
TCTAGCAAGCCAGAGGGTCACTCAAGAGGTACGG | -0.198
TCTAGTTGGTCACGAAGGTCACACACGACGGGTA | 1.09

###

Tested on: LXRa:RXRa (NR concentration 270 nM, RXRa partner concentration 90 nM)
Test: PBM binding z-score (relative to random genomic background probes); higher = stronger binding; sequences stand for … in GC…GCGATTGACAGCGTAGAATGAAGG
Tag: Criterion met if measured PBM binding z-score is not below 0.8, Criterion not met if it is.

record_sequence | assay_target | classification
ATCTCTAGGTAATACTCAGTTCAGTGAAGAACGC | LXRa:RXRa (NR concentration 270 nM, RXRa partner concentration 90 nM) | Criterion met
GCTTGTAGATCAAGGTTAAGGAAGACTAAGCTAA | LXRa:RXRa (NR concentration 270 nM, RXRa partner concentration 90 nM) | Criterion not met
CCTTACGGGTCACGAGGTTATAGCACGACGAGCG | LXRa:RXRa (NR concentration 270 nM, RXRa partner concentration 90 nM) | Criterion met
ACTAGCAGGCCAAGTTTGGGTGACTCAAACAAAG | LXRa:RXRa (NR concentration 270 nM, RXRa partner concentration 90 nM) | Criterion not met
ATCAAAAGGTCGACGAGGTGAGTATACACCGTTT | LXRa:RXRa (NR concentration 270 nM, RXRa partner concentration 90 nM) | Criterion met
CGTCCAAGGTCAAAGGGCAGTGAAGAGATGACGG | LXRa:RXRa (NR concentration 270 nM, RXRa partner concentration 90 nM) | Criterion met
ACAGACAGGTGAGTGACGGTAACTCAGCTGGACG | LXRa:RXRa (NR concentration 270 nM, RXRa partner concentration 90 nM) | Criterion not met
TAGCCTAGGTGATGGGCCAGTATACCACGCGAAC | LXRa:RXRa (NR concentration 270 nM, RXRa partner concentration 90 nM) | Criterion not met
ACAGACAGGTGATGCAGGTAACTCAGGCTATCAT | LXRa:RXRa (NR concentration 270 nM, RXRa partner concentration 90 nM) | Criterion not met
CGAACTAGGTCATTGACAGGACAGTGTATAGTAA | LXRa:RXRa (NR concentration 270 nM, RXRa partner concentration 90 nM) | Criterion met
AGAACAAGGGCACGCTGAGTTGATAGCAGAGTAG | LXRa:RXRa (NR concentration 270 nM, RXRa partner concentration 90 nM) | Criterion not met
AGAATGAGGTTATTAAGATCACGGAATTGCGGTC | LXRa:RXRa (NR concentration 270 nM, RXRa partner concentration 90 nM) | Criterion met
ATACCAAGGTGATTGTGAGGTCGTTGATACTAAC | LXRa:RXRa (NR concentration 270 nM, RXRa partner concentration 90 nM) | Criterion met
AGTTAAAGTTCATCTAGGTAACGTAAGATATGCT | LXRa:RXRa (NR concentration 270 nM, RXRa partner concentration 90 nM) | Criterion met
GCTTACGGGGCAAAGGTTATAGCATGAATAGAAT | LXRa:RXRa (NR concentration 270 nM, RXRa partner concentration 90 nM) | Criterion met
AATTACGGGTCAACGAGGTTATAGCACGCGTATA | LXRa:RXRa (NR concentration 270 nM, RXRa partner concentration 90 nM) | Criterion met
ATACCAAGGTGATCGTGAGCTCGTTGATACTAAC | LXRa:RXRa (NR concentration 270 nM, RXRa partner concentration 90 nM) | Criterion not met
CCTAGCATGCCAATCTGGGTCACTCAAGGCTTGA | LXRa:RXRa (NR concentration 270 nM, RXRa partner concentration 90 nM) | Criterion met
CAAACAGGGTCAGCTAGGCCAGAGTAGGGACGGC | LXRa:RXRa (NR concentration 270 nM, RXRa partner concentration 90 nM) | Criterion met
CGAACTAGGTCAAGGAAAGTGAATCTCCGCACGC | LXRa:RXRa (NR concentration 270 nM, RXRa partner concentration 90 nM) | Criterion met
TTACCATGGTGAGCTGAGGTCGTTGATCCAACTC | LXRa:RXRa (NR concentration 270 nM, RXRa partner concentration 90 nM) | Criterion not met
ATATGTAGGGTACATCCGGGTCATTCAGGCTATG | LXRa:RXRa (NR concentration 270 nM, RXRa partner concentration 90 nM) | Criterion met
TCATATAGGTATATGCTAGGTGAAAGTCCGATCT | LXRa:RXRa (NR concentration 270 nM, RXRa partner concentration 90 nM) | Criterion met
TCATATAGGTAATTCAGGTGAAAGTCGGCATCTA | LXRa:RXRa (NR concentration 270 nM, RXRa partner concentration 90 nM) | Criterion met
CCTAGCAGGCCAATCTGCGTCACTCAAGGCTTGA | LXRa:RXRa (NR concentration 270 nM, RXRa partner concentration 90 nM) | Criterion not met
TCCTGTAGATCAGCAGGTTAAGAAAGCTGGCCAA | LXRa:RXRa (NR concentration 270 nM, RXRa partner concentration 90 nM) | Criterion not met
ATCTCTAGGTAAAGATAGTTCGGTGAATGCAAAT | LXRa:RXRa (NR concentration 270 nM, RXRa partner concentration 90 nM) | Criterion met
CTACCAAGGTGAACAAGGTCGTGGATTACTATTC | LXRa:RXRa (NR concentration 270 nM, RXRa partner concentration 90 nM) | Criterion met
TTCCCAAGGTGAAAGGTCGTTGATGCACGCCTTG | LXRa:RXRa (NR concentration 270 nM, RXRa partner concentration 90 nM) | Criterion met
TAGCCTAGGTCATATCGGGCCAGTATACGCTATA | LXRa:RXRa (NR concentration 270 nM, RXRa partner concentration 90 nM) | Criterion met
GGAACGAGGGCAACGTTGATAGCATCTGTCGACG | LXRa:RXRa (NR concentration 270 nM, RXRa partner concentration 90 nM) | Criterion not met
CGAACTACGTCATTGACAGGACAGTGAATAGTAA | LXRa:RXRa (NR concentration 270 nM, RXRa partner concentration 90 nM) | Criterion not met
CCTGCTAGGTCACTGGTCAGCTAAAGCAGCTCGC | LXRa:RXRa (NR concentration 270 nM, RXRa partner concentration 90 nM) | Criterion met
TCTGCTAGGTCAGTTGGTCAGCGAACGAGCTGCC | LXRa:RXRa (NR concentration 270 nM, RXRa partner concentration 90 nM) | Criterion not met
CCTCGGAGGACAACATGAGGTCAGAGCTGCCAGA | LXRa:RXRa (NR concentration 270 nM, RXRa partner concentration 90 nM) | Criterion met
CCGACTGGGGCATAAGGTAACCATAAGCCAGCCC | LXRa:RXRa (NR concentration 270 nM, RXRa partner concentration 90 nM) | Criterion not met
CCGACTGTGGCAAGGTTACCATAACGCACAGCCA | LXRa:RXRa (NR concentration 270 nM, RXRa partner concentration 90 nM) | Criterion not met
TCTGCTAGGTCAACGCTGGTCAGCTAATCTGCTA | LXRa:RXRa (NR concentration 270 nM, RXRa partner concentration 90 nM) | Criterion met
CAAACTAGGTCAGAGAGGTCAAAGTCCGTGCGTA | LXRa:RXRa (NR concentration 270 nM, RXRa partner concentration 90 nM) | Criterion met
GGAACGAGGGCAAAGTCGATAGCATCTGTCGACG | LXRa:RXRa (NR concentration 270 nM, RXRa partner concentration 90 nM) | Criterion not met
AATGCAGGGTCATCGTAGGCCAGAGTACGCACAG | LXRa:RXRa (NR concentration 270 nM, RXRa partner concentration 90 nM) | Criterion met
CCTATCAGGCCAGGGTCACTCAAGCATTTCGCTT | LXRa:RXRa (NR concentration 270 nM, RXRa partner concentration 90 nM) | Criterion met
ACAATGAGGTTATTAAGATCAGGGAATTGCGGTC | LXRa:RXRa (NR concentration 270 nM, RXRa partner concentration 90 nM) | Criterion met
TCTGCTAGGTCAACGATGGTCAGCCAATCTGCTA | LXRa:RXRa (NR concentration 270 nM, RXRa partner concentration 90 nM) | Criterion met
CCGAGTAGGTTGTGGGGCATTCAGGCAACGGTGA | LXRa:RXRa (NR concentration 270 nM, RXRa partner concentration 90 nM) | Criterion not met
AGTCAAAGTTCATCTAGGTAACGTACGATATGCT | LXRa:RXRa (NR concentration 270 nM, RXRa partner concentration 90 nM) | Criterion met
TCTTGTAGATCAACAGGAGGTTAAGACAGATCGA | LXRa:RXRa (NR concentration 270 nM, RXRa partner concentration 90 nM) | Criterion met
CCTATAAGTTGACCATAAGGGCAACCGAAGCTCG | LXRa:RXRa (NR concentration 270 nM, RXRa partner concentration 90 nM) | Criterion not met
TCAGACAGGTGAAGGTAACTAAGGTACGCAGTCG | LXRa:RXRa (NR concentration 270 nM, RXRa partner concentration 90 nM) | Criterion met
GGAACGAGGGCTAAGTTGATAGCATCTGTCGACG | LXRa:RXRa (NR concentration 270 nM, RXRa partner concentration 90 nM) | Criterion not met

Hello, the source for this data is the supplement of paper PMC6555819, in case you need it.
